system.tested: NAMPT (Homo sapiens (Human))
test.description: NAMPT biochemical inhibition assay (NMN quantified by mass spectrometry)
test.settings: NAMPT biochemical inhibition; read-out: Biochem IC50
Known IC50 of a selection of compounds
Enter your answer as a number in nM; do not include the unit.

[
  {
    "molecular.string": "O=C(NCc1cccnc1)Nc1ccc(S(=O)(=O)c2cccnc2)cc1",
    "system.tested": "NAMPT (Homo sapiens (Human))",
    "val": 5
  },
  {
    "molecular.string": "CC(C)Oc1cccc(S(=O)(=O)c2ccc(NC(=O)NCc3cccnc3)cc2)c1",
    "system.tested": "NAMPT (Homo sapiens (Human))",
    "val": 4
  },
  {
    "molecular.string": "CN(Cc1cccc(C(F)(F)F)c1)S(=O)(=O)c1ccc(NC(=O)NCc2cccnc2)cc1",
    "system.tested": "NAMPT (Homo sapiens (Human))",
    "val": 7
  },
  {
    "molecular.string": "O=C(NCc1cccnc1)Nc1ccc(S(=O)(=O)N2CCC[C@H](C(F)(F)F)C2)cc1",
    "system.tested": "NAMPT (Homo sapiens (Human))",
    "val": 3
  }
]

As a next step, examine the compound that follows.
stdin: State the recorded IC50 for this entry: O=C(NCc1cccnc1)Nc1ccc(S(=O)(=O)N2CCOc3ccccc32)cc1
stdout: 10

###

system.tested: NAMPT (Homo sapiens (Human), UniProt P43490)
Sequence (P43490 whole entry): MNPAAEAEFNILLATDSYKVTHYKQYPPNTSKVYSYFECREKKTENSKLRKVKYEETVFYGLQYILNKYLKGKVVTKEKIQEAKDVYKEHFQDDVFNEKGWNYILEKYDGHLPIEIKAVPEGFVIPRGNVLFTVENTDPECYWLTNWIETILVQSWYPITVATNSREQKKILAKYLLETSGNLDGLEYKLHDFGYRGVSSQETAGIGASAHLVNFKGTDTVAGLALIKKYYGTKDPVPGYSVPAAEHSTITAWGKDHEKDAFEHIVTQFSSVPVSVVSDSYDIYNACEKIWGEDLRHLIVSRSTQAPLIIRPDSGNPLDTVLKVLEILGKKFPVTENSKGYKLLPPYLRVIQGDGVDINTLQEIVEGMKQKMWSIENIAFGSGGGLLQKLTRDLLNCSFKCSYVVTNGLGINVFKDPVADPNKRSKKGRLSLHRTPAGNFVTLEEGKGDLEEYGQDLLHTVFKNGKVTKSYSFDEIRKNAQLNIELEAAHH
test.description: NAMPT biochemical inhibition assay (NMN quantified by mass spectrometry)
test.settings: NAMPT biochemical inhibition; read-out: Biochem IC50
# binning rule on IC50: group 1: < 3 nM; group 2: ≥ 3 nM and < 6 nM; group 3: ≥ 6 nM

See these solved cases before continuing.
[
  {
    "molecular.string": "O=C(NCc1cccnc1)Nc1ccc(S(=O)(=O)c2cccc(OCC3CC3)c2)cc1",
    "classification": "group 3"
  },
  {
    "molecular.string": "Cc1nnc(-c2cccc(S(=O)(=O)c3ccc(NC(=O)NCc4cccnc4)cc3)c2)o1",
    "classification": "group 3"
  },
  {
    "molecular.string": "COc1cc(F)ccc1S(=O)(=O)c1ccc(NC(=O)NCc2cccnc2)cc1",
    "classification": "group 1"
  },
  {
    "molecular.string": "CCN(CC)CCN1CCN(S(=O)(=O)c2ccc(NC(=O)NCc3cccnc3)cc2)CC1",
    "classification": "group 2"
  },
  {
    "molecular.string": "CCN(Cc1ccccc1)S(=O)(=O)c1ccc(NC(=O)NCc2cccnc2)cc1",
    "classification": "group 1"
  }
]

stdin: Which class does COc1c(C)cc(S(=O)(=O)c2ccc(NC(=O)NCc3cccnc3)cc2)cc1C fall in?
stdout: group 1

stdin: Which class does O=C(NCc1cccnc1)Nc1ccc(S(=O)(=O)c2cccc(C(=O)N3CCOCC3)c2)cc1 fall in?
stdout: group 2

###

Known pIC50 of a selection of compounds
system.tested: UniProt:P43490
test.description: NAMPT biochemical inhibition assay (NMN quantified by mass spectrometry)
test.settings: NAMPT biochemical inhibition; read-out: Biochem IC50
Note: pIC50 values are expressed as the negative base-10 logarithm of concentration in M.

[
  {
    "molecular.string": "O=C(NCc1cccnc1)Nc1ccc(S(=O)(=O)N2CCC3(CCCCC3)CC2)cc1",
    "attribute.measured": "pIC50",
    "val": 7.96
  },
  {
    "molecular.string": "O=C(NCc1cccnc1)Nc1ccc(S(=O)(=O)Nc2cccc(C(F)(F)F)c2)cc1",
    "attribute.measured": "pIC50",
    "val": 8.22
  },
  {
    "molecular.string": "CCN(CC)C(=O)c1cc(Cl)cc(S(=O)(=O)c2ccc(NC(=O)NCc3cccnc3)cc2)c1",
    "attribute.measured": "pIC50",
    "val": 8.46
  },
  {
    "molecular.string": "CN(C(=O)CN1CCN(S(=O)(=O)c2ccc(NC(=O)NCc3cccnc3)cc2)CC1)c1ccccc1",
    "attribute.measured": "pIC50",
    "val": 8.10
  },
  {
    "molecular.string": "CC(C)CNC(=O)c1cccc(S(=O)(=O)c2ccc(NC(=O)NCc3cccnc3)cc2)c1",
    "attribute.measured": "pIC50",
    "val": 8.01
  },
  {
    "molecular.string": "CCN(C(C)=O)[C@H]1CCN(S(=O)(=O)c2ccc(NC(=O)NCc3cccnc3)cc2)C1",
    "attribute.measured": "pIC50",
    "val": 8.22
  }
]

stdin: State the recorded pIC50 for this entry: Cc1cc(NS(=O)(=O)c2ccc(NC(=O)NCc3cccnc3)cc2)ccc1C(C)C
stdout: 8.70

stdin: State the recorded pIC50 for this entry: O=C(Nc1nc(-c2cccnc2)cs1)c1ccc(S(=O)(=O)N2CCc3ccccc3C2)cc1
stdout: 4.95

stdin: State the recorded pIC50 for this entry: CCOc1ccccc1N1CCN(S(=O)(=O)c2ccc(NC(=O)NCc3cccnc3)cc2)CC1
stdout: 8.70
